- Procedure Summary: xn = mol fraction of the nth substance listed
- Reported Conditions: 318.15 K; 101.32 kPa; Liquid; x1 = 0.7999
Reported Metric: mass density (kg/m3)

[[record]]
molecule = "COCCOCCOCCOC [2,5,8,11-tetraoxadodecane] + CCO"
unit_info = "kg/m3"
reported = 947.5

[[record]]
molecule = "COCCOCCOCCOCCOC [2,5,8,11,14-pentaoxapentadecane] + CCO"
unit_info = "kg/m3"
reported = 975.6

[[record]]
molecule = "COCCOC [1,2-dimethoxyethane] + CCO"
unit_info = "kg/m3"
reported = 831.2

[[record]]
molecule = "COCCOCCOC [2,5,8-trioxanonane] + CCO"
unit_info = "kg/m3"
reported = 905.4


----------
- Procedure Summary: refractive index (Na D-line) (dimensionless); xn = mol fraction of the nth substance listed
- Reported Conditions: 298.15 K; 101.32 kPa; Liquid; Standard Abbe refractometry; x1 = 0.35
Reported Metric: refractive index

[[record]]
compound = "COCCOCCOC [2,5,8-trioxanonane] + CCO"
reported_metric = "refractive index"
reported = 1.3866

[[record]]
compound = "COCCOC [1,2-dimethoxyethane] + CCO"
reported_metric = "refractive index"
reported = 1.3686

[[record]]
compound = "COCCOCCOCCOC [2,5,8,11-tetraoxadodecane] + CCO"
reported_metric = "refractive index"
reported = 1.3991

[[record]]
compound = "COCCOCCOCCOCCOC [2,5,8,11,14-pentaoxapentadecane] + CCO"
reported_metric = "refractive index"
reported = 1.4089


----------
- Procedure Summary: refractive index (Na D-line) (dimensionless); xn = mol fraction of the nth substance listed
- Reported Conditions: 308.15 K; 101.32 kPa; Liquid; Standard Abbe refractometry; x1 = 0.0045
Reported Metric: refractive index

[[record]]
compound = "COCCOC [1,2-dimethoxyethane] + CCO"
reported_metric = "refractive index"
reported = 1.3552

[[record]]
compound = "COCCOCCOCCOC [2,5,8,11-tetraoxadodecane] + CCO"
reported_metric = "refractive index"
reported = 1.3559

[[record]]
compound = "COCCOCCOCCOCCOC [2,5,8,11,14-pentaoxapentadecane] + CCO"
reported_metric = "refractive index"
reported = 1.3564

[[record]]
compound = "COCCOCCOC [2,5,8-trioxanonane] + CCO"
reported_metric = "refractive index"
reported = 1.3555


----------
- Procedure Summary: xn = mol fraction of the nth substance listed
- Reported Conditions: 298.15 K; 101.32 kPa; Liquid; x1 = 0.0205
Reported Metric: mass density (kg/m3)

[[record]]
compound = "COCCOCCOCCOC [2,5,8,11-tetraoxadodecane] + CCO"
reported = 798

[[record]]
compound = "COCCOCCOCCOCCOC [2,5,8,11,14-pentaoxapentadecane] + CCO"
reported = 802.9

[[record]]
compound = "COCCOC [1,2-dimethoxyethane] + CCO"
reported = 788.3

[[record]]
compound = "COCCOCCOC [2,5,8-trioxanonane] + CCO"
reported = 793.2


----------
- Procedure Summary: xn = mol fraction of the nth substance listed
- Reported Conditions: 318.15 K; 101.32 kPa; Liquid; x1 = 0.0165
Reported Metric: mass density (kg/m3)

[[record]]
compound = "COCCOCCOC [2,5,8-trioxanonane] + CCO"
reported_metric = "mass density"
reported = 774.1

[[record]]
compound = "COCCOCCOCCOC [2,5,8,11-tetraoxadodecane] + CCO"
reported_metric = "mass density"
reported = 778

[[record]]
compound = "COCCOC [1,2-dimethoxyethane] + CCO"
reported_metric = "mass density"
reported = 770.1

[[record]]
compound = "COCCOCCOCCOCCOC [2,5,8,11,14-pentaoxapentadecane] + CCO"
reported_metric = "mass density"
reported = 782


----------
- Procedure Summary: refractive index (Na D-line) (dimensionless); xn = mol fraction of the nth substance listed
- Reported Conditions: 298.15 K; 101.32 kPa; Liquid; Standard Abbe refractometry; x1 = 0.3
Reported Metric: refractive index

[[record]]
compound = "COCCOCCOCCOCCOC [2,5,8,11,14-pentaoxapentadecane] + CCO"
reported = 1.4053

[[record]]
compound = "COCCOC [1,2-dimethoxyethane] + CCO"
reported = 1.3676

[[record]]
compound = "COCCOCCOC [2,5,8-trioxanonane] + CCO"
reported = 1.3839

[[record]]
compound = "COCCOCCOCCOC [2,5,8,11-tetraoxadodecane] + CCO"
reported = 1.3958


----------
- Procedure Summary: refractive index (Na D-line) (dimensionless); xn = mol fraction of the nth substance listed
- Reported Conditions: 288.15 K; 101.32 kPa; Liquid; Standard Abbe refractometry; x1 = 0.05
Reported Metric: refractive index

[[record]]
molecule = "COCCOC [1,2-dimethoxyethane] + CCO"
reported = 1.3649

[[record]]
molecule = "COCCOCCOCCOCCOC [2,5,8,11,14-pentaoxapentadecane] + CCO"
reported = 1.376

[[record]]
molecule = "COCCOCCOC [2,5,8-trioxanonane] + CCO"
reported = 1.3687

[[record]]
molecule = "COCCOCCOCCOC [2,5,8,11-tetraoxadodecane] + CCO"
reported = 1.3724


----------
- Procedure Summary: xn = mol fraction of the nth substance listed
- Reported Conditions: 298.15 K; 101.32 kPa; Liquid; x1 = 0.3
Reported Metric: mass density (kg/m3)

[[record]]
compound = "COCCOC [1,2-dimethoxyethane] + CCO"
unit_info = "kg/m3"
reported = 820.5

[[record]]
compound = "COCCOCCOC [2,5,8-trioxanonane] + CCO"
unit_info = "kg/m3"
reported = 866.3

[[record]]
compound = "COCCOCCOCCOC [2,5,8,11-tetraoxadodecane] + CCO"
unit_info = "kg/m3"
reported = 900

[[record]]
compound = "COCCOCCOCCOCCOC [2,5,8,11,14-pentaoxapentadecane] + CCO"
unit_info = "kg/m3"
reported = 927.4


----------
- Procedure Summary: xn = mol fraction of the nth substance listed
- Reported Conditions: 288.15 K; 101.32 kPa; Liquid; x1 = 0.4
Reported Metric: mass density (kg/m3)

[[record]]
compound = "COCCOCCOCCOCCOC [2,5,8,11,14-pentaoxapentadecane] + CCO"
reported_metric = "mass density"
unit_info = "kg/m3"
reported = 957.6

[[record]]
compound = "COCCOC [1,2-dimethoxyethane] + CCO"
reported_metric = "mass density"
unit_info = "kg/m3"
reported = 838.8

[[record]]
compound = "COCCOCCOC [2,5,8-trioxanonane] + CCO"
reported_metric = "mass density"
unit_info = "kg/m3"
reported = 892.4

[[record]]
compound = "COCCOCCOCCOC [2,5,8,11-tetraoxadodecane] + CCO"
reported_metric = "mass density"
unit_info = "kg/m3"
reported = 929.2


----------
- Procedure Summary: refractive index (Na D-line) (dimensionless); xn = mol fraction of the nth substance listed
- Reported Conditions: 318.15 K; 101.32 kPa; Liquid; Standard Abbe refractometry; x1 = 0.25
Reported Metric: refractive index

[[record]]
compound = "COCCOCCOC [2,5,8-trioxanonane] + CCO"
reported_metric = "refractive index"
reported = 1.3725

[[record]]
compound = "COCCOCCOCCOC [2,5,8,11-tetraoxadodecane] + CCO"
reported_metric = "refractive index"
reported = 1.3839

[[record]]
compound = "COCCOC [1,2-dimethoxyethane] + CCO"
reported_metric = "refractive index"
reported = 1.3576

[[record]]
compound = "COCCOCCOCCOCCOC [2,5,8,11,14-pentaoxapentadecane] + CCO"
reported_metric = "refractive index"
reported = 1.3931


----------
- Procedure Summary: xn = mol fraction of the nth substance listed
- Reported Conditions: 308.15 K; 101.32 kPa; Liquid; x1 = 0.0165
Reported Metric: mass density (kg/m3)

[[record]]
compound = "COCCOCCOC [2,5,8-trioxanonane] + CCO"
reported = 783

[[record]]
compound = "COCCOCCOCCOCCOC [2,5,8,11,14-pentaoxapentadecane] + CCO"
reported = 790.9

[[record]]
compound = "COCCOCCOCCOC [2,5,8,11-tetraoxadodecane] + CCO"
reported = 786.8

[[record]]
compound = "COCCOC [1,2-dimethoxyethane] + CCO"
reported = 779


----------
- Procedure Summary: refractive index (Na D-line) (dimensionless); xn = mol fraction of the nth substance listed
- Reported Conditions: 308.15 K; 101.32 kPa; Liquid; Standard Abbe refractometry; x1 = 0.55
Reported Metric: refractive index

[[record]]
molecule = "COCCOCCOCCOCCOC [2,5,8,11,14-pentaoxapentadecane] + CCO"
reported = 1.415

[[record]]
molecule = "COCCOC [1,2-dimethoxyethane] + CCO"
reported = 1.3675

[[record]]
molecule = "COCCOCCOCCOC [2,5,8,11-tetraoxadodecane] + CCO"
reported = 1.4049

[[record]]
molecule = "COCCOCCOC [2,5,8-trioxanonane] + CCO"
reported = 1.3904

